Cited source: patent US20220125947A1

target: Vg9/Vd1 TCR on SKW3 cells (UniProt Q99603); experiment: flow cytometry DRC binding 37 C, SKW3 cells expressing Vg9/Vd1
Sequence (Q99603 21-122): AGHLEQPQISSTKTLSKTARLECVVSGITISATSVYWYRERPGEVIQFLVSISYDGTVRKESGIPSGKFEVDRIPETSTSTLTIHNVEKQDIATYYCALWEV
outcome.measure: Max. Activity (fold over background)
Returns: the value as a bare number; no unit string appended.

Problem: I would be grateful if you could share the reported Max. Activity (fold over background) for VG9B386 (antibody, human IgG1, kappa, V domains shown) VH: EVQLVESGGGLVKPGGSLRLSCAASGFTFSSYSMIWVRQAPGKGLEWVSSIGSSSTYIYYADSVRGRFTISRDNAKTSLYLQMNSLRAEDTAMYFCARDGETGGFDYWGQGILVTVSS VL: EIVMTQSPGTLSLSPGERATLSCRASQSISRSYLAWYQQKPGQPPRLLIYGPSNRATGIPDRFSASGSGTDFTLTNSRLEPEDFAVYYCQQYGSLPLTFGGGTKVEIKR .
Result: 389
